B1: Chromodomain-helicase-DNA-binding protein 4, residues 365 to 417; numbered along this chain, Q14839 (parent)
chain: YETDHQDYCEVCQQGGEIILCDTCPRAYHMVCLDPDMEKAPEGKWSCPHCEKE

- Variants of: B1
- TEST: abundance fitness (aPCA) (normalised: wild type 0, dead -1); higher = more abundant; growth selection in yeast, the domain comes from the species named
- ASSAY CONDITIONS: Homo sapiens
OBSERVED PROPERTY: abundance fitness

The cases that follow already have their abundance fitness on record.
T23H | 0.312
C12I | -0.342
G16M | -0.095
Q13W | -0.255
P25D | -0.276

Inquiry: Would you kindly share the measured abundance fitness for V31P ?
Reply text: 0

Inquiry: Likewise for Q13M ?
Reply text: 0.156

Inquiry: Likewise for E17T ?
Reply text: -0.033

Inquiry: Likewise for K39L ?
Reply text: -0.132

Inquiry: Likewise for D34R ?
Reply text: -0.145

Inquiry: Likewise for E42K ?
Reply text: 0.026

Inquiry: Likewise for P41I ?
Reply text: 0.055

Inquiry: Likewise for P35Q ?
Reply text: -0.284

Inquiry: Likewise for C9Q ?
Reply text: -0.845

Inquiry: Likewise for C32F ?
Reply text: -1.02

Inquiry: Likewise for P41T ?
Reply text: -0.105

Inquiry: Likewise for V11I ?
Reply text: -0.064

Inquiry: Likewise for D7Y ?
Reply text: -0.003

Inquiry: Likewise for V11C ?
Reply text: 0.063

The reported numbers originate from the Human Domainome abundance scans (Beltran et al. 2025).
